- System: 769-P
- experiment description: GI50 of drug in presence of dasatinib; higher = less potent
- assay conditions: treatment: drug + dasatinib (fixed dose, not stated); 5 days
# reported GI50 of drug; entries follow
recorded endpoint: GI50 of drug

* CCc1cccc(CC)c1NC(=O)N1Cc2[nH]nc(NC(=O)c3ccc(N4CCN(C)CC4)cc3)c2C1 + Cc1nc(Nc2ncc(C(=O)Nc3c(C)cccc3Cl)s2)cc(N2CCN(CCO)CC2)n1 | > 10 µM
* c1cncc(CN2CCC(n3ncc4c(N5CCOCC5)nc(-c5ccc6[nH]ccc6c5)nc43)CC2)c1 [WAY-600] + Cc1nc(Nc2ncc(C(=O)Nc3c(C)cccc3Cl)s2)cc(N2CCN(CCO)CC2)n1 | 0.688 µM
* CCS(=O)(=O)N1CC(CC#N)(n2cc(-c3ncnc4[nH]ccc34)cn2)C1 + Cc1nc(Nc2ncc(C(=O)Nc3c(C)cccc3Cl)s2)cc(N2CCN(CCO)CC2)n1 | > 10 µM

----------
# reported GI50, drug alone; entries follow
- Tested on: A498
- experiment description: GI50, drug alone; higher = less potent
- assay conditions: treatment: drug alone; 5 days
recorded endpoint: GI50, drug alone

- Cn1c(=O)n(-c2ccc(C(C)(C)C#N)cc2)c2c3cc(-c4cnc5ccccc5c4)ccc3ncc21: 0.303 µM
- CN1CCN(CCOc2cc(OC3CCOCC3)c3c(Nc4c(Cl)ccc5c4OCO5)ncnc3c2)CC1: > 10 µM
- CN(C[C@@H]1COCCO1)S(=O)(=O)Nc1ccc2ccc3ncc(-c4cnn(C)c4)cc3c(=O)c2c1: > 10 µM
- COc1cc2ncnc(Nc3ccc(F)c(Cl)c3)c2cc1OCCCN1CCOCC1: > 10 µM
- O=c1cc(N2CCOCC2)oc2c(-c3cccc4c3sc3ccccc34)cccc12: > 10 µM
- COc1cc2nccc(Oc3ccc(NC(=O)NC4CC4)c(Cl)c3)c2cc1C(N)=O: > 10 µM
- COc1ncc(-c2ccc3nccc(-c4ccnnc4)c3c2)cc1NS(=O)(=O)c1ccc(F)cc1F: 0.242 µM
- S=C(NCc1ccc2c(c1)OCO2)N1CCN(c2ncnc3c2oc2ccccc23)CC1 [Amuvatinib (MP-470)]: 3.14 µM
- CO[C@H]1C[C@H]2CC[C@@H](C)[C@@](O)(O2)C(=O)C(=O)N2CCCC[C@H]2C(=O)O[C@H]([C@H](C)C[C@@H]2CC[C@H](OP(C)(C)=O)[C@H](OC)C2)CC(=O)[C@H](C)/C=C(\C)[C@@H](O)[C@@H](OC)C(=O)[C@H](C)C[C@H](C)/C=C/C=C/C=C/1C (stereo in doubt) [Deforolimus (Ridaforolimus)]: > 10 µM
- COc1cc2c(Oc3ccc(NC(=O)C4(C(=O)Nc5ccc(F)cc5)CC4)cc3F)ccnc2cc1OCCCN1CCOCC1: 3.26 µM
- Cc1ncc(-c2ccnc(Nc3ccc(S(C)(=O)=O)cc3)n2)n1C(C)C: 1.23 µM
- Cc1cc(C(=O)NOCCO)c(Nc2ccc(I)cc2F)n(C)c1=O: > 10 µM
- O=C(O)c1ccc2c(c1)nc(Nc1cccc(Cl)c1)c1ccncc12 [cx-4945 (Silmitasertib)]: > 10 µM
- COc1ccc(-c2ccc3c(N4CCOC[C@@H]4C)nc(N4CCOC[C@@H]4C)nc3n2)cc1CO: 0.37 µM

----------
- Test system: A498
- experiment description: AUC of dose-response viability curve, drug alone (arbitrary (AUC of normalised viability)); higher = less growth inhibition
- assay conditions: treatment: drug alone; 5 days
recorded endpoint: AUC of dose-response viability curve

• COc1ccc(C2=NC(c3ccc(Cl)cc3)C(c3ccc(Cl)cc3)N2C(=O)N2CCNC(=O)C2)c(OC(C)C)c1 (centres undefined) = 3.9
• CS(=O)(=O)O.N#CC1(c2ccc(NC(=O)c3cccnc3NCc3ccncc3)cc2)CCCC1 = 4.78
• Cc1cc(Nc2cc(N3CCN(C)CC3)nc(Sc3ccc(NC(=O)C4CC4)cc3)n2)n[nH]1 = 3.1
• O=C(O)c1ccc(Nc2ncc3c(n2)-c2ccc(Cl)cc2C(c2c(F)cccc2F)=NC3)cc1 = 3.53
